Reference source for all entries: patent US20250163057A1

Property: IC50; scope: individual compounds
# tgt: DCN1 (DCUND1) protein PONY domain (Homo sapiens (Human))
# Sequence (Q96GG9 60-248): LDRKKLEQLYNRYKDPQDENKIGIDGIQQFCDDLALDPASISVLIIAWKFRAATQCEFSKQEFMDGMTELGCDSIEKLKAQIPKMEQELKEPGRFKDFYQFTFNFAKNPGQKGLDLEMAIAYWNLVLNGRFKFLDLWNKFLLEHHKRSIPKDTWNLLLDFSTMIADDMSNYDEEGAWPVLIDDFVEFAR
# experiment description: TR-FRET assay, DCN1 binding with FAM-labeled probe
# particulars: TR FRET IC50 1 hr (nM), 1 hr after treatment with compound

compound	IC50
C=C(C(=O)OCC)c1nn(-c2ccccc2)c2c1[C@H](c1ccc(F)cc1)[C@H](NC(=O)c1cccc(C(F)(F)F)c1)C(=O)N2CC (racemic) [Compound I-35]	> 3000 nM
CCN1C(=O)[C@@H](NC(=O)c2ccc3[nH]cnc3c2)[C@@H](C2CC2)c2c(C(=O)N3[C@H](C#N)C[C@H]4C[C@H]43)nn(C3CCOCC3)c21 [Compound I-632]	1000 to 3000 nM
CCN1C(=O)[C@@H](NC(=O)c2cccc(C(F)(F)F)c2)[C@@H](c2ccc(F)cc2)c2c(CN3CC=CS3(=O)=O)nn(-c3ccccc3)c21 (racemic) [Compound I-110]	200 to 1000 nM
COCCN1C(=O)[C@@H](NC(=O)c2cccc(C(F)(F)F)c2)[C@@H](C2CC2)c2c(C(=O)N3[C@H](C#N)C[C@H]4C[C@H]43)nn(C3CCOCC3)c21 [Compound I-474]	1000 to 3000 nM
CCN1C(=O)[C@H](NC(=O)c2cccc(C(F)(F)F)c2)[C@H](c2ccc(F)cc2)c2c(CN(C)C#N)nn(-c3ccccc3)c21 [Compound I-20]	1000 to 3000 nM
CCN1C(=O)[C@H](NC(=O)c2cccc(C(F)(F)F)c2)[C@H](c2ccc(F)cc2)c2c(C(=O)N(CC#N)CCC(=O)OC)nn(-c3ccccc3)c21 (stereo in doubt) [Compound I-461]	1000 to 3000 nM
CCN1C(=O)[C@H](NC(=O)c2cccc(C(F)(F)F)c2)[C@@H](c2ccc(F)cc2)c2c(C3(N(C)C#N)CC3)nn(-c3ccccc3)c21 (racemic) [Compound I-76]	1000 to 3000 nM
CCN1C(=O)[C@H](NC(=O)c2cccc(C(F)(F)F)c2)[C@H](c2ccc(F)cc2)c2c(C(=O)N3CCC[C@H]3C#N)nn(-c3ccccc3)c21 [Compound I-611]	1000 to 3000 nM
CCN1C(=O)[C@@H](NC(=O)c2cccc(C(F)(F)F)c2)[C@@H](C2CC2)c2c(C(=O)N3[C@H](C#N)CC[C@@H]3C)nn(C3CCOCC3)c21 [Compound I-700]	1000 to 3000 nM
CCN1C(=O)[C@H](NC(=O)c2cccc(C(F)(F)F)c2)[C@H](c2ccc(F)cc2)c2c([C@@H](C)NC#N)nn(C3CCOCC3)c21 [Compound I-597]	1000 to 3000 nM
CCC(=O)N[C@@H]1C(=O)N(CC)c2c(c(C(=O)N3[C@H](C#N)C[C@H]4C[C@H]43)nn2C2CCOCC2)[C@@H]1C1CC1 [Compound I-696]	1000 to 3000 nM
